I'd appreciate it if you could supply IC50 values for the items below.
- Organism: Homo sapiens
- assay comment: Concentration required to inhibit 50% growth of Human CEM T-lymphocytes cells
- Assay type: functional, cell-based
- test parameters: CCRF-CEM
Give just the numeric value; µM need not be written.

Query: Dear colleague, please send me the reported IC50 for CN(C)Cc1cc(C(=O)/C=C/c2ccc(F)cc2)cc(CN(C)C)c1O when you can.
Result: 13.8

Query: Dear colleague, please send me the reported IC50 for O=C(/C=C/c1ccc(O)cc1)c1ccc(Cl)c(Cl)c1 when you can.
Result: 20

Query: Dear colleague, please send me the reported IC50 for O=C(/C=C/c1ccccc1)Oc1ccc(C(=O)/C=C/c2ccccc2)cc1 when you can.
Result: 13.2

Query: Dear colleague, please send me the reported IC50 for O=C(/C=C/c1ccc(Cl)cc1Cl)c1ccc(O)cc1 when you can.
Result: 10.2

Query: Dear colleague, please send me the reported IC50 for Cc1ccc(/C=C/C(=O)c2ccc(O)cc2)cc1 when you can.
Result: 11.3

Query: Dear colleague, please send me the reported IC50 for CN(C)Cc1cc(C(=O)/C=C/c2ccccc2Cl)cc(CN(C)C)c1O when you can.
Result: 8.08

Query: Dear colleague, please send me the reported IC50 for CN(C)Cc1cc(/C=C/C(=O)c2ccccc2)cc(CN(C)C)c1O when you can.
Result: 22.1

Query: Dear colleague, please send me the reported IC50 for COc1ccc(/C=C/C(=O)c2ccc(OC(=O)/C=C/c3ccccc3)cc2)cc1 when you can.
Result: 10.8

Query: Dear colleague, please send me the reported IC50 for CN(C)Cc1cc(C(=O)/C=C/c2c(F)cccc2Cl)cc(CN(C)C)c1O when you can.
Result: 7.74

Query: Dear colleague, please send me the reported IC50 for O=C(/C=C/c1ccc(Cl)cc1)c1ccc(O)cc1 when you can.
Result: 3.47

Query: Dear colleague, please send me the reported IC50 for CN(C)Cc1cc(C(=O)/C=C/c2cc(F)ccc2F)cc(CN(C)C)c1O when you can.
Result: 2.91

---

- System: Tumor Cell line
- assay comment: Evaluation for cytotoxicity to human tumor cell lines.
- Assay type: functional, cell-based
value kind: pIC50
Quick note: pIC50 values are minus log10 of concentrations in mol/L.

Query: Dear colleague, please send me the reported pIC50 for CN(C)Cc1cc(C(=O)/C=C/c2ccc(F)cc2)cc(CN(C)C)c1O when you can.
Result: 4.70

Query: Dear colleague, please send me the reported pIC50 for CN(C)Cc1cc(C(=O)/C=C/c2c(Cl)cccc2Cl)cc(CN(C)C)c1O when you can.
Result: 5.23

Query: Dear colleague, please send me the reported pIC50 for CN(C)Cc1cc(C(=O)/C=C/c2ccc(Br)cc2)cc(CN(C)C)c1O when you can.
Result: 5.20

Query: Dear colleague, please send me the reported pIC50 for CN(C)Cc1cc(C(=O)/C=C/c2ccccc2)cc(CN(C)C)c1O when you can.
Result: 4.66

Query: Dear colleague, please send me the reported pIC50 for CN(C)Cc1cc(C(=O)/C=C/c2ccc(O)cc2)cc(CN(C)C)c1O when you can.
Result: 4.40

Query: Dear colleague, please send me the reported pIC50 for CN(C)Cc1cc(C(=O)/C=C/c2ccc(Cl)cc2)cc(CN(C)C)c1O when you can.
Result: 5.00

Query: Dear colleague, please send me the reported pIC50 for Cc1ccc(/C=C/C(=O)c2cc(CN(C)C)c(O)c(CN(C)C)c2)cc1 when you can.
Result: 4.75

Query: Dear colleague, please send me the reported pIC50 for CN(C)Cc1cc(C(=O)/C=C/c2ccc(Cl)c(Cl)c2)cc(CN(C)C)c1O when you can.
Result: 5.63

Query: Dear colleague, please send me the reported pIC50 for O=C(/C=C/c1ccc(/C=C/C(=O)c2ccc(O)cc2)cc1)c1ccc(O)cc1 when you can.
Result: 4.03

Entry source: ChEMBL document CHEMBL1131501
